# testTarget: T1, human ActRIIA (human, UniProt P27037 20-135, limits assumed)
# T1 construct: antigen in MSD-SET; also called ACVR2A; ActR2A
# T1 sequence (P27037 20-135 limits assumed): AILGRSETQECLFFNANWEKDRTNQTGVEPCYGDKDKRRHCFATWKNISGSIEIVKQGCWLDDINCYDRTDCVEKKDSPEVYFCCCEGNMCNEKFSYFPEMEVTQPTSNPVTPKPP
# protocol: MSD-SET
observable: Kd (nM)

{"binder": "Antibody Duuranad (antibody, V domains shown, full-length IgG) VH: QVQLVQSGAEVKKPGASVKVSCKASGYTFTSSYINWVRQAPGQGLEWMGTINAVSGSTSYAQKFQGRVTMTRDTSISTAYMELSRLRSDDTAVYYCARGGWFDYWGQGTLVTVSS VL: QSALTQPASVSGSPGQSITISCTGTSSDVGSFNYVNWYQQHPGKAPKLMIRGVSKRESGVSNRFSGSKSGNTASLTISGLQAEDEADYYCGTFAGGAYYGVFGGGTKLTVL", "measuredValue": 0.009}
{"binder": "Fasnetsküchla Fab (Fab, V domains shown, Fab) VH: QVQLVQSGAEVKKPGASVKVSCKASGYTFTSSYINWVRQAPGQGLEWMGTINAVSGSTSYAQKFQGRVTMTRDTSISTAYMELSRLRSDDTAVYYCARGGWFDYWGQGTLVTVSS VL: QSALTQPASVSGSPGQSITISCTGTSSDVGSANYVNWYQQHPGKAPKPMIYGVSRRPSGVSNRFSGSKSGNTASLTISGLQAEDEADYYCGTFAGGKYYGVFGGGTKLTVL", "measuredValue": 0.114}
{"binder": "Duuranad Fab (Fab, V domains shown, Fab) VH: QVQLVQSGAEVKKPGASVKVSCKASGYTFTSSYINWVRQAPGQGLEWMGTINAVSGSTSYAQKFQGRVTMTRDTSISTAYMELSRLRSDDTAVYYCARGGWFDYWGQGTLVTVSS VL: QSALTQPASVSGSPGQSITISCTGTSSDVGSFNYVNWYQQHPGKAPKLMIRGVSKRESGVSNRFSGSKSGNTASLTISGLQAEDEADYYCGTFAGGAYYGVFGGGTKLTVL", "measuredValue": 0.047}
